assayed.target: CD3 (antigen of the binding affinity table of Example 1) (UniProt P07766)
assay.text: kinetic fit with two-state parameters; method not given
Known ka2 of a selection of binders
Write it as a number; the unit s⁻¹ goes unstated.

binder	unit.spec	ka2
H3L3 (antibody, V domains shown) VH: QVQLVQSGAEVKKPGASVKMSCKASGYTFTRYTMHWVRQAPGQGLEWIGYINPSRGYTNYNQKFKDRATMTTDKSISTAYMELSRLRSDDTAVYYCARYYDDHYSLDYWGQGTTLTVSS VL: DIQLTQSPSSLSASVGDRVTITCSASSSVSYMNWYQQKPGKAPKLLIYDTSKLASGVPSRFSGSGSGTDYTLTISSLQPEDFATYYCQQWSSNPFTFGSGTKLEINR	s⁻¹	0.0191

From here, focus on the item given below.
Report ka2 for H4L1 (antibody, V domains shown) VH: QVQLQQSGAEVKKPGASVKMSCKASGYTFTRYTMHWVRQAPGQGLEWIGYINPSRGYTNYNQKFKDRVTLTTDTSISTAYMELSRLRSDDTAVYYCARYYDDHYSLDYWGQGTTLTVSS VL: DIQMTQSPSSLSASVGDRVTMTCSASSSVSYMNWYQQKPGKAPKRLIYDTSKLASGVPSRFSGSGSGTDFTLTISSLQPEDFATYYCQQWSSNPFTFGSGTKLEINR please.
0.0282

The values you see were collected from patent US20230212289A1.
